Values from ChEMBL document CHEMBL1147956

# TESTED SYSTEM: Inhibitor of nuclear factor kappa-B kinase subunit beta (Homo sapiens)
# Sequence (O14920 whole entry): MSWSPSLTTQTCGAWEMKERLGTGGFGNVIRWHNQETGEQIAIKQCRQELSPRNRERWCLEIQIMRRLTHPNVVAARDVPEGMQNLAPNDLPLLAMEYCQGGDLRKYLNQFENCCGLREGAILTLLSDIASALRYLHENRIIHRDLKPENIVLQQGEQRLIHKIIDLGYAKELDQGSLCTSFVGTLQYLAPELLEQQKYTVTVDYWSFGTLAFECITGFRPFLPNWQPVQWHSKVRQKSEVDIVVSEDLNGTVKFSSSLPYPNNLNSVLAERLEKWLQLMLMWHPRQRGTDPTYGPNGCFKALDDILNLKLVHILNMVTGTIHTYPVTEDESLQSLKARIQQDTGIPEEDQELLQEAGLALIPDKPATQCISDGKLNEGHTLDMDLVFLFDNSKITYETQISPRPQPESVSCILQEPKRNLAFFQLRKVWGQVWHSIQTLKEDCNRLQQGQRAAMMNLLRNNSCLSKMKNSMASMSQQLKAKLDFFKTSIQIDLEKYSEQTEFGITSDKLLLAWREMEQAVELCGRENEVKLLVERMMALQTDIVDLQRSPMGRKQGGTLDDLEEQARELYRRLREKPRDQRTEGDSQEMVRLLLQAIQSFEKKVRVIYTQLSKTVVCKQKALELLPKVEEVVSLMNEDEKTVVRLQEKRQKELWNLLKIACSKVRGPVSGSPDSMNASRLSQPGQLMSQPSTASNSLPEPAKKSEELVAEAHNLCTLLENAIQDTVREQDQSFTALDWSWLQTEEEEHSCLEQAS
# EXPERIMENT NOTES: Inhibition of IKK-beta after 30 mins
PROPERTY NAME: pIC50
Interpret pIC50 as the negative base-10 log of the concentration measured in mol/L.

pIC50 in this record for `Cc1cc(-c2c3ccccc3c(Br)c3sc(C)c(C)c23)cc(C)c1O[C@H](Cc1ccccc1)C(=O)O` : 6.40
